What viability was measured for each of the following?
Test: growth suppression of PTEN-deleted HCT116, pilot screen, cell-based, HCT116 clonal line, CellTiter-Glo (AID 824);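 also: 0% = 20 µM Hyamine control and 100% = vehicle cell control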
Details: 60 h, at 10 µM, stronger effect = lower value
Results filed as inconclusive are left out.
Numbers only; they are read as %.

stdin: // viability lookup, key: Cc1ccc2oc3c(c(=O)c2c1)C(c1ccc(F)cc1)N(CCCN1CCOCC1)C3=O (stereo not drawn)
stdout: 89.6

stdin: // viability lookup, key: CC(C)N1CCc2c(sc(NC(=O)c3ccc(S(=O)(=O)N4CCOCC4)cc3)c2C(N)=O)C1
stdout: 88.7

stdin: // viability lookup, key: O=C(NCc1cccs1)C1CCN(S(=O)(=O)c2cccc3cccnc23)CC1
stdout: 90.7

###

Assay: OD615 S. cerevisiae growth inhibition, permissive medium, pilot counter-assay, permissive growth control for S. cerevisiae lifespan shortening project (AID 705)
Conditions: OD615, 24 h, at 10 µM, stronger effect = higher value
What growth inhibition was measured for each of the following?
Numbers only; they are read as %.

stdin: // growth inhibition lookup, key: O=C(COc1ccccc1)Nc1nnc(-c2ccc(Cl)s2)o1
stdout: -2.75

stdin: // growth inhibition lookup, key: COc1ccc(C(=O)C(OC(=O)CNC(=O)c2ccco2)c2ccccc2)cc1 (stereo unspecified)
stdout: -11.8

stdin: // growth inhibition lookup, key: CS/C(=N\S(=O)(=O)c1ccc(N)cc1)NS(=O)(=O)c1cccs1
stdout: -0.825

stdin: // growth inhibition lookup, key: COc1cccc(C(=O)NC2CC3CCCC(C2)N3CC(=O)Nc2ccc(N(C)C)cc2)c1 (stereo unspecified)
stdout: -14.1

stdin: // growth inhibition lookup, key: CC(=O)c1cccc(NC(=O)C2CCCC2)c1
stdout: -9.02

stdin: // growth inhibition lookup, key: O=C(C1CCCCN1S(=O)(=O)c1ccc(F)cc1)N1CCN(c2ccccc2F)CC1 (stereo unspecified)
stdout: -14.1

stdin: // growth inhibition lookup, key: C=CCSc1nnc(CSc2nc3sc4c(c3c(=O)[nH]2)CCCC4)n1-c1ccccc1
stdout: 9.19

stdin: // growth inhibition lookup, key: Cn1c(Cn2c(=O)sc3ccccc32)nnc1SCC(=O)Nc1ccc(Cl)cc1
stdout: -9.07

stdin: // growth inhibition lookup, key: CCOC(=O)c1c(C2CCN(C(=O)OCC)CC2)nc2ccccn12
stdout: -9.71

stdin: // growth inhibition lookup, key: NC(=O)CSc1ncc(-c2ccccc2)[nH]1
stdout: -4.49

stdin: // growth inhibition lookup, key: O=C(c1ccccc1NS(=O)(=O)c1cccs1)N1CCCC1
stdout: -1.34

stdin: // growth inhibition lookup, key: O=C(CSc1nc2c(cnn2-c2ccc(F)cc2)c(=O)[nH]1)N1CCOCC1
stdout: -14.2

stdin: // growth inhibition lookup, key: O=C(c1nnc(Cc2ccc(Cl)cc2)o1)N1CCOCC1
stdout: -7.58

stdin: // growth inhibition lookup, key: Cc1cc(C)n2nc(SCC(=O)Nc3ccc(F)cc3)nc2n1
stdout: -11.7

stdin: // growth inhibition lookup, key: Cn1c(NCc2ccccc2Cl)nc2ccccc21
stdout: -5.4

stdin: // growth inhibition lookup, key: O=C(Nc1cccc(F)c1)c1ccc(S(=O)(=O)N2CCCC2)cc1
stdout: -3.88

stdin: // growth inhibition lookup, key: O=C(O)c1ccc(-n2nnnc2SCc2ccccc2F)cc1
stdout: -13.7

stdin: // growth inhibition lookup, key: O=C(CCc1ccccc1)Nc1nnc(-c2cccs2)o1
stdout: -12.3

stdin: // growth inhibition lookup, key: O=C(CN1C(=O)COc2ccccc21)Nc1ccc(F)cc1
stdout: -5.98

stdin: // growth inhibition lookup, key: COc1ccc(C2C(C(=O)Nc3cc(C)on3)c3ccccc3C(=O)N2C)cc1 (stereo unspecified)
stdout: 2.9

stdin: // growth inhibition lookup, key: CCN1CCN(c2ncnc3c2sc2nc(N4CCOCC4)c4c(c23)CCC4)CC1
stdout: -5.5

stdin: // growth inhibition lookup, key: Cc1ccc(S(=O)(=O)N2C3C=CC(C3)C2C(=O)O)cc1 (stereo unspecified)
stdout: 3.23

stdin: // growth inhibition lookup, key: COc1ccc(C2C(C(=O)NCCN(C)C)c3cc(OC)c(OC)cc3C(=O)N2C)cc1OC (stereo unspecified)
stdout: -3.47

stdin: // growth inhibition lookup, key: Cc1cccc(C(=O)Nc2cc(=O)n(C)c(=O)n2C)c1
stdout: -14.2

stdin: // growth inhibition lookup, key: CCOc1ccc(C2CC(=O)NC(SCC(=O)OC)=C2C#N)cc1 (stereo unspecified)
stdout: 3.64

stdin: // growth inhibition lookup, key: Cc1noc(C(=O)Nc2c(C)nn(Cc3ccccc3)c2C)c1Cl
stdout: -7.73
